molecular target: Serine/threonine-protein kinase pim-3 (Homo sapiens) (UniProt Q86V86); assay: Inhibition of PIM3 (unknown origin) assessed as residual enzyme activity at 10 uM

| test-smiles | measured-target | Activity / % |
| --- | --- | --- |
| COc1cccc(OC)c1C(=O)Nc1c[nH]nc1C(=O)NCc1ccccc1 | Serine/threonine-protein kinase pim-3 (Homo sapiens) (UniProt Q86V86) | 96 |
| COc1cccc(OC)c1C(=O)Nc1c[nH]nc1C(=O)N[C@H]1CC[C@H](OC)CC1 | Serine/threonine-protein kinase pim-3 (Homo sapiens) (UniProt Q86V86) | 94 |
| CO[C@H]1CC[C@H](NC(=O)c2n[nH]cc2NC(=O)c2ccc(-c3ccccc3)o2)CC1 | Serine/threonine-protein kinase pim-3 (Homo sapiens) (UniProt Q86V86) | 1 |
| CO[C@H]1CC[C@H](NC(=O)c2n[nH]cc2NC(=O)c2ccccc2)CC1 | Serine/threonine-protein kinase pim-3 (Homo sapiens) (UniProt Q86V86) | 19 |

###

biological target: CDK2/Cyclin A2 (Homo sapiens, UniProt P24941); assay: Inhibition of human CDK2/cyclin A using Biotin-C6-PKTPKKAKKL substrate
pIC50: −log10 of the molar value.
Threshold check on pIC50: at or above 6 gives Y, strictly below gives N.

| compound | category-label |
| --- | --- |
| CCCCCNC(=O)c1n[nH]cc1NC(=O)c1c(OC)cccc1OC | N |
| COc1cccc(OC)c1C(=O)Nc1c[nH]nc1C(=O)NCCCN(C)C | N |
| COc1cccc(OC)c1C(=O)Nc1c[nH]nc1C(=O)NCc1ccccc1 | N |
| COc1cccc(OC)c1C(=O)Nc1c[nH]nc1C(=O)NC1CCN(Cc2ccccc2)C1 (configuration not stated) | N |
| CO[C@H]1CC[C@H](NC(=O)c2n[nH]cc2NC(=O)c2ccccc2F)CC1 | Y |
| CO[C@H]1CC[C@H](NC(=O)c2n[nH]cc2NC(=O)C2CCOCC2)CC1 | Y |
| CO[C@H]1CC[C@H](NC(=O)c2n[nH]cc2NC(=O)c2ccc(-c3ccccc3)o2)CC1 | Y |
| CO[C@H]1CC[C@H](NC(=O)c2n[nH]cc2NC(=O)c2cc(F)cc(F)c2)CC1 | Y |
| CO[C@H]1CC[C@H](NC(=O)c2n[nH]cc2NC(=O)c2c(C)nc3ccccn23)CC1 | N |

###

Each entry below carries its reported Ratio IC50.
test: Selectivity ratio, ratio of IC50 for human GSK3 to IC50 Trypanosoma brucei GSK3

| test-smiles | reported-relation | Ratio IC50 |
| --- | --- | --- |
| CO[C@H]1CC[C@H](NC(=O)c2n[nH]cc2NC(=O)Cc2c(Cl)cccc2Cl)CC1 | = | 0.87 |
| CO[C@H]1CC[C@H](NC(=O)c2n[nH]cc2NC(=O)c2ccccc2Nc2cccc(C)c2C)CC1 | = | 0.45 |
| CO[C@H]1CC[C@H](NC(=O)c2n[nH]cc2NC(=O)c2c(C)nc3ccccn23)CC1 | = | 0.42 |
| COc1cccc(OC)c1C(=O)Nc1c[nH]nc1C(=O)N[C@H]1CC[C@H](OC)CC1 | < | 2.5 |
| COc1cccc(OC)c1C(=O)Nc1c[nH]nc1C(=O)NCCN1CCOCC1 | = | 12 |
| COC(=O)c1n[nH]cc1NC(=O)c1c(OC)cccc1OC | = | 8.7 |
| COc1cccc(OC)c1C(=O)Nc1c[nH]nc1C(=O)N[C@H]1CC[C@H](O)CC1 | = | 35 |
| COc1cccc(OC)c1C(=O)Nc1c[nH]nc1C(=O)NC1CCC1 | = | 10 |
| CO[C@H]1CC[C@H](NC(=O)c2n[nH]cc2NC(=O)c2ccccc2Nc2ccccc2)CC1 | = | 1.8 |
| CO[C@H]1CC[C@H](NC(=O)c2n[nH]cc2NC(=O)c2ccccc2F)CC1 | = | 0.25 |
| COc1cccc(OC)c1C(=O)Nc1c[nH]nc1C(=O)NCCN1CCCC1 | = | 2.1 |

###

target: Dual specificity tyrosine-phosphorylation-regulated kinase 2 (Homo sapiens); assay: Inhibition of DYRK2 (unknown origin) assessed as residual enzyme activity at 10 uM

| test-smiles | units-text | Activity |
| --- | --- | --- |
| COc1cccc(OC)c1C(=O)Nc1c[nH]nc1C(=O)N[C@H]1CC[C@H](OC)CC1 | % | 63 |
| CO[C@H]1CC[C@H](NC(=O)c2n[nH]cc2NC(=O)c2ccccc2)CC1 | % | 3 |
| COc1cccc(OC)c1C(=O)Nc1c[nH]nc1C(=O)NCc1ccccc1 | % | 28 |
| CO[C@H]1CC[C@H](NC(=O)c2n[nH]cc2NC(=O)c2ccc(-c3ccccc3)o2)CC1 | % | 1 |

###

biological target: Insulin-like growth factor 1 receptor (Homo sapiens) (UniProt P08069); experiment: Inhibition of IGF-1R (unknown origin) assessed as residual enzyme activity at 10 uM
Sequence (P08069 31-736 limits assumed): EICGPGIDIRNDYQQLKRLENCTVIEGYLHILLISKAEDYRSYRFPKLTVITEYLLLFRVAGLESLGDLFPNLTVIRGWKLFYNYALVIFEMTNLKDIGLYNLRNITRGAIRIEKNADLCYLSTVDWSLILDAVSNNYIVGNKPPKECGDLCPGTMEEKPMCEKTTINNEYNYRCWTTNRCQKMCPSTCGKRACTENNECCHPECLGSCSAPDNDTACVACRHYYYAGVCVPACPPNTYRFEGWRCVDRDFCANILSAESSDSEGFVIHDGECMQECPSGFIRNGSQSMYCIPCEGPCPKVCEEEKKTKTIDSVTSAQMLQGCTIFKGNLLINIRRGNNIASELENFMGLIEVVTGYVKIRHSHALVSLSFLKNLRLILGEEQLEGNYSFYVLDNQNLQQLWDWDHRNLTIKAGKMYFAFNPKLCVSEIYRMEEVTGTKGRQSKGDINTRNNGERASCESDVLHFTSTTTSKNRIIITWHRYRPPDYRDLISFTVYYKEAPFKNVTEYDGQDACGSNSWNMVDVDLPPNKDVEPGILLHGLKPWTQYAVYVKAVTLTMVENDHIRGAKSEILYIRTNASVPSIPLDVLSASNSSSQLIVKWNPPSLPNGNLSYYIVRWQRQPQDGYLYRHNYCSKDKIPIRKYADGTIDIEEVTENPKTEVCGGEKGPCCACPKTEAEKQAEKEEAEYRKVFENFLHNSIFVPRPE
Sequence (P08069 741-1367 limits assumed): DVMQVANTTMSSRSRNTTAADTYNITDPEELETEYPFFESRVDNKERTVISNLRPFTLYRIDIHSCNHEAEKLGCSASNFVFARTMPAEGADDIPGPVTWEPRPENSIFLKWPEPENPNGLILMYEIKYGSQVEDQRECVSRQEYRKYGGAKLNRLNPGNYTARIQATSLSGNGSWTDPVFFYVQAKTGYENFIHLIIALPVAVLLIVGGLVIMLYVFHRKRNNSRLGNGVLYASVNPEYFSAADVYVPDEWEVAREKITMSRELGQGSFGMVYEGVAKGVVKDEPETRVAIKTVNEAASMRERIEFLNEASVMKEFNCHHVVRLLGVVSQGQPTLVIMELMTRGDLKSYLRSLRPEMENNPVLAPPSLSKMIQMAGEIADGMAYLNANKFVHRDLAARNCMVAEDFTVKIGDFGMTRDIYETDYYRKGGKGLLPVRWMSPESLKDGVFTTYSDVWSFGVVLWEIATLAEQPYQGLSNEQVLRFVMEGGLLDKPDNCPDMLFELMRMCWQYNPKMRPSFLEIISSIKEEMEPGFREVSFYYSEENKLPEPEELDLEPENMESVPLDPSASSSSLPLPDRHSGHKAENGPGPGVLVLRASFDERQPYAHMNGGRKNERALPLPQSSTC
readout-kind: Activity (%)

| test-smiles | readout-kind | numeric-value |
| --- | --- | --- |
| COc1cccc(OC)c1C(=O)Nc1c[nH]nc1C(=O)NCc1ccccc1 | Activity | 79 |
| CO[C@H]1CC[C@H](NC(=O)c2n[nH]cc2NC(=O)c2ccc(-c3ccccc3)o2)CC1 | Activity | 15 |
| COc1cccc(OC)c1C(=O)Nc1c[nH]nc1C(=O)N[C@H]1CC[C@H](OC)CC1 | Activity | 100 |
| CO[C@H]1CC[C@H](NC(=O)c2n[nH]cc2NC(=O)c2ccccc2)CC1 | Activity | 96 |

###

biological target: Glycogen synthase kinase-3 (Homo sapiens, UniProt P49840+P49841); assay: Inhibition of human GSK3 using biotinylated GSP2 substrate by flashplate assay; type: protein assay
readout-kind: log10 IC50 (log10 of the value in µM)

| test-smiles | log10 IC50 |
| --- | --- |
| COc1cccc(OC)c1C(=O)Nc1c[nH]nc1C(=O)NC1CCN(C(=O)OC(C)(C)C)CC1 | -0.85 |
| COc1cccc(OC)c1C(=O)Nc1c[nH]nc1C(=O)NCCN1CCOCC1 | -0.20 |
| COc1cccc(OC)c1C(=O)Nc1c[nH]nc1C(=O)NC1CC1 | -0.66 |
| COc1ccccc1CC(=O)Nc1c[nH]nc1C(=O)N[C@H]1CC[C@H](OC)CC1 | -0.68 |
| CO[C@H]1CC[C@H](NC(=O)c2n[nH]cc2NC(=O)C2CCOCC2)CC1 | -2.10 |
| CO[C@H]1CC[C@H](NC(=O)c2n[nH]cc2NC(=O)Cc2ccccc2F)CC1 | -0.85 |
| COc1cccc(OC)c1C(=O)Nc1c[nH]nc1C(=O)NC1CCC1 | -1.10 |
| COc1cccc(OC)c1C(=O)Nc1c[nH]nc1C(=O)NCCCN(C)C | -0.33 |
| CO[C@H]1CC[C@H](NC(=O)c2n[nH]cc2NC(=O)C2CCC(F)(F)CC2)CC1 | -2.10 |
| COc1cccc(OC)c1C(=O)Nc1c[nH]nc1C(=O)NC1CCCCCC1 | -1.70 |
| COc1cccc(OC)c1C(=O)Nc1c[nH]nc1C(=O)NCc1ncccc1C | -0.06 |
| CO[C@H]1CC[C@H](NC(=O)c2n[nH]cc2NC(=O)c2ccccc2Nc2ccccc2)CC1 | -1.70 |
| CO[C@H]1CC[C@H](NC(=O)c2n[nH]cc2NC(=O)c2ccccc2Nc2cccc(C)c2C)CC1 | -1.52 |
| COc1cccc(OC)c1C(=O)Nc1c[nH]nc1C(=O)N[C@H]1CC[C@H](O)CC1 | -1.15 |
| CO[C@H]1CC[C@H](NC(=O)c2n[nH]cc2NC(=O)Cc2c(Cl)cccc2Cl)CC1 | -0.70 |
| CCc1ccccc1C(=O)Nc1c[nH]nc1C(=O)N[C@H]1CC[C@H](OC)CC1 | -1.70 |
| COc1cccc(OC)c1C(=O)Nc1c[nH]nc1C(=O)Nc1ccncc1 | -0.92 |
| COc1cccc(OC)c1C(=O)Nc1c[nH]nc1C(=O)NCc1ccccc1 | -0.48 |
| COc1cccc(OC)c1C(=O)Nc1c[nH]nc1C(=O)Nc1ccccc1 | -1.15 |
| CO[C@H]1CC[C@H](NC(=O)c2n[nH]cc2NC(=O)c2ncoc2-c2ccccc2)CC1 | -2.30 |
| CO[C@H]1CC[C@H](NC(=O)c2n[nH]cc2NC(=O)c2c(C)nc3ccccn23)CC1 | -1.38 |
| COc1cccc(OC)c1C(=O)Nc1c[nH]nc1C(=O)NN1CCOCC1 | -0.35 |
| COc1cccc(OC)c1C(=O)Nc1c[nH]nc1C(=O)NCCN1CCCC1 | -0.18 |
| COc1cc(OC)c(C(=O)Nc2c[nH]nc2C(=O)N[C@H]2CC[C@H](OC)CC2)c(OC)c1 | -1.05 |
